Recorded measurements of responders at 100 mg/kg, one per entry
- Tested on: maximal electroshock (MES) seizures, mice
- procedure_text: maximal electroshock (MES) seizure test
- Format: in vivo
- assay_setup: Mus musculus, ip; 100 mg/kg i.p., 0.5 h, mice; read-out: MES: number of mice protected/number of mice tested (converted)
Respond with the figure and its unit, in that order.

Here is how some compounds turned out for responders at 100 mg/kg.
1) CC(=O)NC(C(=O)NC1CCN(c2cccc(C(F)(F)F)c2)C1)c1ccccc1 (stereo not shown) [Compound 22] ... 0%
2) O=C(NC(C(=O)N1CCN(c2cccc(C(F)(F)F)c2)CC1)c1ccccc1)c1ccc(C(F)(F)F)cn1 (stereo not shown) [Compound 12] ... 0%
3) O=C(NC(C(=O)N1CCN(c2cccc(C(F)(F)F)c2)CC1)c1ccccc1)c1cccc(Cl)c1 (stereo not shown) [Compound 5] ... 0%

Quick check: responders at 100 mg/kg on maximal electroshock (MES) seizures, mice, item CC(=O)N[C@H](C(=O)N1CCN(c2cccc(OC(F)(F)F)c2)CC1)c1ccccc1 [(S)-32] ?
25%

----------
- procedure_text: pharmacokinetic study in mice (serum and brain, non-compartmental analysis)
- Format: in vivo, mouse
- assay_setup: male, CD-1, mouse, ip, brain, 50 mg/kg i.p., read-out: t1/2 λz
quantity_name: half-life (h)
Reply numerically in h, unit not repeated.

I am curious: what half-life value has been reported for CC(=O)N[C@@H](C(=O)N1CCN(c2cccc(OC(F)(F)F)c2)CC1)c1ccccc1 [(R)-32] ?
1.04

----------
- procedure_text: pharmacokinetic study in mice (serum and brain, non-compartmental analysis)
- Type: in vivo, mouse
- assay_setup: male, CD-1, mouse, ip, brain, 25 mg/kg i.p.
quantity_name: Tmax (min)
The reply should contain only the number, in min.

Param item = CC(=O)N[C@@H](C(=O)N1CCN(c2cccc(OC(F)(F)F)c2)CC1)c1ccccc1 [(R)-32] ; retrieve measured Tmax.
15

----------
Entries and their measured melting point follow.

Record excerpt, results attached:
1) CC(=O)NC(C(=O)NC1CCN(c2cccc(OC(F)(F)F)c2)C1)c1ccccc1 (stereo not shown) ... 173.1 to 174.2 °C
2) O=C(NC(C(=O)N1CCN(c2cccc(C(F)(F)F)c2)CC1)c1ccccc1)c1ccc(C(F)(F)F)cn1 (stereo not shown) ... 146.5 to 147.2 °C
3) O=C(NC(C(=O)N1CCN(c2cccc(C(F)(F)F)c2)CC1)c1ccccc1)c1ccccc1Cl (stereo not shown) ... 134.8 to 135.9 °C
4) O=C(NC(C(=O)N1CCN(c2cccc(C(F)(F)F)c2)CC1)c1ccccc1)c1ccccc1C(F)(F)F (stereo not shown) ... 165.2 to 166.7 °C
5) O=C(NC(C(=O)N1CCN(c2cccc(C(F)(F)F)c2)CC1)c1ccccc1)c1cccc(Cl)c1 (stereo not shown) ... 151.7 to 152.4 °C

Returns the measured melting point for the input compound. Input: O=C(NC(C(=O)N1CCN(c2cccc(C(F)(F)F)c2)CC1)c1ccccc1)c1ccc(Cl)cc1 (stereo not shown)
165.2 to 166.7 °C

Also check CC(=O)N[C@H](C(=O)N1CCN(c2cccc(C(F)(F)F)c2)CC1)c1ccccc1 [(S)-31]
109.8 to 110.6 °C

----------
- subject_of_test: TRPV1 (VR1) (h) (Homo sapiens, UniProt Q8NER1)
- Construct: host or cells: CHO cells
- Sequence (Q8NER1 whole entry): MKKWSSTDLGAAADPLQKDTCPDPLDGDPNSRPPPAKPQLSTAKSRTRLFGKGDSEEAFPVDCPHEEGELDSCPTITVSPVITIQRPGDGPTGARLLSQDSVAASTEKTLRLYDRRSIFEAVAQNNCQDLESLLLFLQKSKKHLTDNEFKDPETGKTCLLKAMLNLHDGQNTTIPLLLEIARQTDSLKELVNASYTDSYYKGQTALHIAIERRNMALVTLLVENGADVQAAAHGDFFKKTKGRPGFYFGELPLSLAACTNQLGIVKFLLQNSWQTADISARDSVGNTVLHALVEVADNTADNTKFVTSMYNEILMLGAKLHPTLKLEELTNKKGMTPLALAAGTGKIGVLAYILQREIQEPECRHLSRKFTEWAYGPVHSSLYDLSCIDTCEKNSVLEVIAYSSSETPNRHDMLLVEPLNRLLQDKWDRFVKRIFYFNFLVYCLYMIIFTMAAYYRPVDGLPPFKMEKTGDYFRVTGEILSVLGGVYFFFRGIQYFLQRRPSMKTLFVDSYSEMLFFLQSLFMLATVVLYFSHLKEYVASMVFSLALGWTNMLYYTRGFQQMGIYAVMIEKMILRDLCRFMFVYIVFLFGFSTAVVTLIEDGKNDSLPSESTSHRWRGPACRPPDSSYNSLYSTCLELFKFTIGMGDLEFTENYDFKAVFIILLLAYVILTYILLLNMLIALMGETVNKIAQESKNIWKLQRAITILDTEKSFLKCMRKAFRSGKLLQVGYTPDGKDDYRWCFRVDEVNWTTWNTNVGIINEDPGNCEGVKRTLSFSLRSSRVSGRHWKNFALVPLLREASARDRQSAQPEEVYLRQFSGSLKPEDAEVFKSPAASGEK
- procedure_text: TRPV1 (VR1) (h) (antagonist effect)
- Format: cell-based
- assay_setup: 100 µM, human recombinant CHO cells; read-out: % Inhibition of control agonist response
quantity_name: inhibition at 100 µM (%)
Output spec: scalar in %, unitless text.

1. O=C(NC(C(=O)N1CCN(c2cccc(C(F)(F)F)c2)CC1)c1ccccc1)c1ccccc1 (stereo not drawn) [Compound 3] ... 11.4
2. O=C(NC(C(=O)N1CCN(c2cccc(C(F)(F)F)c2)CC1)c1ccccc1)c1ccc(Cl)cc1 (stereo not drawn) [Compound 6] ... 6.8
3. CC(=O)NC(C(=O)NC1CCN(c2cccc(C(F)(F)F)c2)C1)c1ccccc1 (stereo not drawn) [Compound 22] ... -8.4
4. O=C(NC(C(=O)N1CCN(c2cccc(C(F)(F)F)c2)CC1)c1ccccc1)c1cccc(Cl)c1 (stereo not drawn) [Compound 5] ... 3.8
5. O=C(NC(C(=O)N1CCN(c2cccc(C(F)(F)F)c2)CC1)c1ccccc1)c1cc(C(F)(F)F)ccn1 (stereo not drawn) [Compound 11] ... -4.2

API: the following record is the query input.
Param item = O=C(NC(C(=O)N1CCN(c2cccc(C(F)(F)F)c2)CC1)c1ccccc1)c1ncccc1C(F)(F)F (stereo not drawn) [Compound 10] ; retrieve measured inhibition at 100 µM.
-3.5

----------
Items are presented alongside their recorded responders at 100 mg/kg.
- Test system: maximal electroshock (MES) seizures, mice
- procedure_text: maximal electroshock (MES) seizure test
- Format: in vivo
- assay_setup: Mus musculus, ip; 100 mg/kg i.p., 0.5 h, mice; read-out: MES: number of mice protected/number of mice tested (converted)
# number only, unit % dropped from output

// worked examples, responders at 100 mg/kg included
1) CC(=O)NC(C(=O)NC1CCN(c2cccc(SC(F)(F)F)c2)C1)c1ccccc1 (stereo not shown) ... 0
2) O=C(NC(C(=O)N1CCN(c2cccc(C(F)(F)F)c2)CC1)c1ccccc1)c1ccc(Cl)cc1 (stereo not shown) ... 0
3) CC(=O)N[C@H](C(=O)N1CCN(c2cccc(SC(F)(F)F)c2)CC1)c1ccccc1 [(S)-33] ... 25

Continue with the molecule presented below.
// map O=C(NC(C(=O)N1CCN(c2cccc(C(F)(F)F)c2)CC1)c1ccccc1)c1ccccc1Cl (stereo not shown) to recorded responders at 100 mg/kg (system: maximal electroshock (MES) seizures, mice)
0

----------
Let's look at some molecules and their measured melting point.

1) CC(=O)NC(C(=O)NC1CCN(c2cccc(C(F)(F)F)c2)C1)c1ccccc1 (centres unmarked) ... 203.7 to 204.4 °C
2) CC(=O)N[C@@H](C(=O)N1CCN(c2cccc(C(F)(F)F)c2)CC1)c1ccccc1 [(R)-31] ... 112.9 to 113.5 °C
3) O=C(NC(C(=O)N1CCN(c2cccc(C(F)(F)F)c2)CC1)c1ccccc1)c1cccc(C(F)(F)F)c1 (centres unmarked) ... 143.2 to 144.1 °C

Consider the molecule O=C(NC(C(=O)N1CCN(c2cccc(C(F)(F)F)c2)CC1)c1ccccc1)c1ccccc1 (centres unmarked) and give its measured melting point.
140.9 to 141.2 °C

What do you get for CC(=O)NC(C(=O)NC1CCN(c2cccc(SC(F)(F)F)c2)C1)c1ccccc1 (centres unmarked) ?
168.8 to 169.7 °C

O=C(NC(C(=O)N1CCN(c2cccc(C(F)(F)F)c2)CC1)c1ccccc1)c1ccc(C(F)(F)F)cc1 (centres unmarked) , same question.
103.4 to 104.2 °C

Try this molecule next: O=C(NC(C(=O)N1CCN(c2cccc(C(F)(F)F)c2)CC1)c1ccccc1)c1cc(C(F)(F)F)ccn1 (centres unmarked)
101.2 to 102.4 °C

Item: CC(=O)NC(C(=O)NC1CCN(c2ccccc2)C1)c1ccccc1 (centres unmarked)
189.7 to 190.5 °C

----------
- procedure_text: pharmacokinetic study in mice (serum and brain, non-compartmental analysis)
- Assay type: in vivo, mouse
- assay_setup: male, CD-1, mouse, ip, serum, 25 mg/kg i.p., read-out: Vz/F
quantity_name: Vd/F (L/kg)
Hi! Could you send only the number? It should be in L/kg, unit omitted.

Entry under review: CC(=O)N[C@@H](C(=O)N1CCN(c2cccc(OC(F)(F)F)c2)CC1)c1ccccc1 [(R)-32] . Reported Vd/F?
12.3

----------
- procedure_text: pharmacokinetic study in mice (serum and brain, non-compartmental analysis)
- Assay type: in vivo, mouse
- assay_setup: male, CD-1, mouse, ip, brain, 50 mg/kg i.p.
- Description: They were housed in conditions of constant temperature with the 12:12 h light–dark cycle and free access to food and water. […] Samples were kept at −80 °C until they were analyzed. […] Concentrations of compound (R)-32 in mouse serum and brain tissue were measured using a liquid chromatography tandem mass spectrometry method (LC-MS/MS). […] The limits used for quantification were 0.001 to 5, 0.1 to 20 μg/mL for serum, and 0.005 to 25 μg/g for brain tissue. […]
quantity_name: Tmax (min)
Enter your answer as a number in min; do not include the unit.

What measured Tmax goes with CC(=O)N[C@@H](C(=O)N1CCN(c2cccc(OC(F)(F)F)c2)CC1)c1ccccc1 [(R)-32] ?
15

----------
- procedure_text: pharmacokinetic study in mice (serum and brain, non-compartmental analysis)
- Assay type: in vivo, mouse
- assay_setup: male, CD-1, mouse, ip, serum, 50 mg/kg i.p.
quantity_name: Tmax (min)
Note: unit min is implicit; provide only the numeric part.

Name the recorded Tmax for CC(=O)N[C@@H](C(=O)N1CCN(c2cccc(OC(F)(F)F)c2)CC1)c1ccccc1 [(R)-32] .
15
